Taken from ChEMBL document CHEMBL1201862.

Test system: TK-10
Experiment: NCI tumour cell line growth inhibition, 48 h
Active and inactive are the calls of the source. Cut-off read from the data, not from the text of the source: active = GI50 up to about 1.1 µM and inactive = higher.
measurement name: GI50

CC/C=C\C/C=C\C/C=C\CCCCCCCC(=O)OCC | > 100 µM (inactive)
COc1cccc(-c2ccc3c4c2O[C@H]2C(=O)CC[C@@]5(O)[C@@H](C3)N(CC3CC3)CC[C@]425)c1 | 17.3 µM (inactive)
N#CCN1CCOCCOCCN(CC#N)CCOCCOCC1 | > 100 µM (inactive)
CC1CCC[P+](Cc2ccccc2)(c2ccccc2)CC1 (stereo not given) | > 100 µM (inactive)
O=S(=O)(/N=c1\[nH]c(-c2cc(O)c(O)c(O)c2)cs1)c1ccc(Cl)cc1Cl | 4.65 µM (inactive)
O=NNc1cnc(O)nc1O | > 100 µM (inactive)
Nc1c(-c2ccccc2[N+](=O)[O-])nc2ccccn12 | > 100 µM (inactive)
CC(C)(C)[Si](C)(C)O[C@@H](C(=O)OC1C=CCCC1)[C@@H](NC(=O)c1ccccc1)c1ccccc1 (stereo not given in full) | 16.5 µM (inactive)
O=[N+]([O-])c1ccc(/N=N/N2CCCC2)cc1 | > 100 µM (inactive)
CC(=O)NNc1nc(C)c(C(/C=C/c2ccc([N+](=O)[O-])cc2)=N/NC(N)=S)s1 | > 100 µM (inactive)
